# Measurement Protocol: Inhibition of baker's yeast alpha-glucosidase using p-nitrophenyl-alpha-D-glucopyranoside substrate assessed as inhibition constant for enzyme-compound binding by measuring reduction in p-nitrophenolate formation
# Set-up: species or system Saccharomyces cerevisiae
Can you tell me pKi for the items I'm about to list?
Give bare numbers, as −log10 of the molar value.

Some entries whose results are on file:
// pKi value for Oc1cc(/C=N/NC(=[Se])Nc2ccccc2)cc(O)c1O : 4.52

Reported pKi of Oc1ccc(/C=N/NC(=S)Nc2ccccc2)cc1O : 3.15

Item: Oc1cc(O)c(/C=N/NC(=S)Nc2ccccc2)cc1O | pKi: 5.02

Record Oc1cc(O)c(/C=N/NC(=[Se])Nc2cccc3ccccc23)cc1O , field pKi: 4.48

Items follow; give pKi for each.
1. Oc1ccc(/C=N/NC(=[Se])Nc2ccccc2)cc1O
2. Oc1ccc(/C=N/NC(=[Se])Nc2ccccc2)cc1

3.70
3.47
